tested on: waterhemp; test: Test C pre-/postemergence herbicide test; type: in vivo, Amaranthus rudis; details: Preemergence, 250 g ai/ha
Please go through the items and note down their Plant response rating (scale of 0 to 100), Waterhemp.
Answers are plain numbers.

Worked cases, answers included:
INSERT INTO results (compound, meas_value) VALUES
  ('O=C1NCC(c2ccc(F)cc2)C1C(=O)Nc1ccc(F)c(F)c1F (racemic) [Compound 120]', 85),
  ('O=C1NCC(c2ccc(Cl)cc2)C1C(=O)Nc1cccc(F)c1F (stereo not shown) [Compound 218]', 90),
  ('O=C1NCC(c2cccc(OC(F)F)c2)C1C(=O)Nc1cccc(F)c1F (stereo not shown) [Compound 224]', 80);

# context switch: different compound, same Plant response rating (scale of 0 to 100), Waterhemp
Query :: Requested field: Plant response rating (scale of 0 to 100), Waterhemp. Item: CN1CC(c2cccc(C(F)(F)F)c2)C(C(=O)Nc2cccc(F)c2F)C1=O (stereo not shown) [Compound 305]
Result :: 80

====

tested on: soybean; assay: Test C pre-/postemergence herbicide test; assay type: in vivo, Glycine max; settings: Postemergence, 62 g ai/ha; scale 0 to 100 (0 no effect, 100 complete control)
measured_quantity: Plant response rating, Soybean
Numbers only.

Worked cases, answers included:
INSERT INTO assay_data (compound, tested_target, meas_value) VALUES
  ('O=C1NCC(c2ccc(C(F)(F)F)cc2)C1C(=O)Nc1ccccc1F (stereo not shown)', 'soybean', 0),
  ('O=C1NCC(c2ccc(F)c(Cl)c2)C1C(=O)Nc1ccccc1F (stereo not shown)', 'soybean', 0),
  ('O=C1NCC(c2cc(F)c(F)cc2F)C1C(=O)Nc1cccc(F)c1F (stereo not shown)', 'soybean', 15);

# context switch: different compound, same Plant response rating, Soybean
Query :: // fetch soybean Plant response rating, Soybean for Cc1ccccc1NC(=O)C1C(=O)NCC1c1cccc(C(F)(F)F)c1 (racemic)
Result :: 0

====

test system: pigweed; experiment: Test D pre-/postemergence herbicide test; format: in vivo, Amaranthus retroflexus; settings: Postemergence; 250 g ai/ha; Pigweed; scale 0 to 100
measured_quantity: Plant response rating
Answers are plain numbers.

INSERT INTO assay_data (compound, measured_quantity, meas_value) VALUES
  ('O=C1NCC(c2ccc(C(F)(F)F)cc2)C1C(=O)Nc1cccc(F)c1F (racemic)', 'Plant response rating', 80),
  ('O=C1NCC(c2ccc(C(F)(F)F)cc2)C1C(=O)Nc1ccccc1F (stereo not shown)', 'Plant response rating', 45),
  ('O=C1NCC(c2ccc(F)c(F)c2)C1C(=O)Nc1ccccc1C(F)(F)F (racemic)', 'Plant response rating', 20);

Query :: Requested field: Plant response rating. Item: O=C1NCC(c2ccc(F)c(F)c2)C1C(=O)Nc1cccc(F)c1F (stereo not shown)
Result :: 50

====

Please go through the items and note down their Plant response rating, Foxtail, Giant.
test system: foxtail, giant; experiment: Test C pre-/postemergence herbicide test; assay type: in vivo, Setaria faberii; details: Postemergence, 31 g ai/ha; scale 0 to 100 (0 no effect, 100 complete control)
Numbers only.

Worked cases, answers included:
INSERT INTO measurements (compound, measured_quantity, meas_value) VALUES
  ('CN1CC(c2ccc(C(F)(F)F)cc2)C(C(=O)Nc2cccc(F)c2F)C1=O (centres unmarked) [Compound 306]', 'Plant response rating, Foxtail, Giant', 5),
  ('O=C1NCC(c2cccc(Br)c2)C1C(=O)Nc1ccc(F)c(F)c1F (centres unmarked) [Compound 310]', 'Plant response rating, Foxtail, Giant', 0),
  ('O=C1NCC(c2ccc(F)c(F)c2)C1C(=O)Nc1ccc(F)c(F)c1F (centres unmarked) [Compound 346]', 'Plant response rating, Foxtail, Giant', 20);

// each listed compound needs a value for Plant response rating, Foxtail, Giant
1. O=C1NCC(c2cccc(OC(F)F)c2)C1C(=O)Nc1ccccc1F (centres unmarked) [Compound 323]
2. O=C1NCC(c2ccc(C(F)(F)F)cc2)C1C(=O)Nc1cccc(F)c1F (racemic) [Compound 202]

Result ::
0
5
